Answer each item with its documented kinase still bound, per cent of control.
Target: ICK (human)
Assay: KINOMEscan competition binding
Details: compound 10.0 µM
One number for each entry, in %.

Worked set:
N#C/C(=C1/Nc2ccccc2S1)c1ccnc(NCCc2cccnc2)n1; 64
CC(=O)c1c(C)c2cnc(Nc3ccc(N4CCNCC4)cn3)nc2n(C2CCCC2)c1=O; 38
C=CC(=O)Nc1ccc(C(=O)c2sc(Nc3ccc(N4CCN(C)CC4)cc3OC)nc2N)cc1; 32
CNC(=O)Nc1ccc(-c2nc(N3CC4CCC(C3)O4)c3cnn(C4CCC5(CC4)OCCO5)c3n2)cc1; 87
CCOc1cc(N2CCC(O)CC2)ccc1Nc1ncc2c(n1)N(C)c1ccccc1C(=O)N2C; 100

For every listed record, write down its kinase still bound, per cent of control.
1. CCc1nc(-c2cccc(C)c2)c(-c2ccnc(NC(=O)c3ccccc3)c2)s1
2. CCN1CCN(Cc2ccc(NC(=O)c3ccc(C)c(/C=C/c4cnc5[nH]ccc5c4OC)c3)cc2C(F)(F)F)CC1
3. CC1=C(C(=O)Nc2cc3cn[nH]c3cc2F)C(c2ccc(C(F)(F)F)cc2)CC(=O)N1 (stereo not given)

[100, 99, 79]

====

Molecular target: ULK3 (human) (UniProt Q6PHR2)
Sequence (Q6PHR2 whole entry, looked up): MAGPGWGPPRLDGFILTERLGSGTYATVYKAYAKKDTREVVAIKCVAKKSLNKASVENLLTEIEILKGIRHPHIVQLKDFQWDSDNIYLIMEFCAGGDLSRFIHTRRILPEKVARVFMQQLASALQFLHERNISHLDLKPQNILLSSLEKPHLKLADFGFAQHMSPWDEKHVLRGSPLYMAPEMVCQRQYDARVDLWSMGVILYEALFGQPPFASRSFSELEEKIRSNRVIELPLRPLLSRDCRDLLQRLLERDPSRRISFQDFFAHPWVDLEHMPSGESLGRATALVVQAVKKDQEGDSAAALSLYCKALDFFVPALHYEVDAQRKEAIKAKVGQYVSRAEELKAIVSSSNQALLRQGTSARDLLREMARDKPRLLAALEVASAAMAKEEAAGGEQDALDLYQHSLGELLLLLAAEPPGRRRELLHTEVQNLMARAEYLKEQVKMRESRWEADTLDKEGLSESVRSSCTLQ
Experiment: KINOMEscan competition binding
Conditions: compound 10.0 µM
The threshold is 40%. Values of kinase still bound, per cent of control beneath it are tagged met; values meeting or exceeding it are tagged not met.

Answered examples (3):
O=c1[nH]c2ccccc2n1C1CCN(Cc2ccc(-c3nc4cc5[nH]cnc5cc4nc3-c3ccccc3)cc2)CC1; not met
COc1cc2ncnc(Nc3cccc(Cl)c3)c2cc1OC; met
N#C/C(=C1/Nc2ccccc2S1)c1ccnc(NCCc2cccnc2)n1; met

Determine if C=CC(=O)Nc1ccc(C(=O)c2sc(Nc3ccc(N4CCN(C)CC4)cc3OC)nc2N)cc1 shows kinase still bound, per cent of control strictly lower than 40%.
met

Determine if CCOc1cc(N2CCC(O)CC2)ccc1Nc1ncc2c(n1)N(C)c1ccccc1C(=O)N2C shows kinase still bound, per cent of control strictly lower than 40%.
not met

====

System: PIK3CA (human), P42336 [E542K]
Sequence (P42336 whole entry E542K, looked up): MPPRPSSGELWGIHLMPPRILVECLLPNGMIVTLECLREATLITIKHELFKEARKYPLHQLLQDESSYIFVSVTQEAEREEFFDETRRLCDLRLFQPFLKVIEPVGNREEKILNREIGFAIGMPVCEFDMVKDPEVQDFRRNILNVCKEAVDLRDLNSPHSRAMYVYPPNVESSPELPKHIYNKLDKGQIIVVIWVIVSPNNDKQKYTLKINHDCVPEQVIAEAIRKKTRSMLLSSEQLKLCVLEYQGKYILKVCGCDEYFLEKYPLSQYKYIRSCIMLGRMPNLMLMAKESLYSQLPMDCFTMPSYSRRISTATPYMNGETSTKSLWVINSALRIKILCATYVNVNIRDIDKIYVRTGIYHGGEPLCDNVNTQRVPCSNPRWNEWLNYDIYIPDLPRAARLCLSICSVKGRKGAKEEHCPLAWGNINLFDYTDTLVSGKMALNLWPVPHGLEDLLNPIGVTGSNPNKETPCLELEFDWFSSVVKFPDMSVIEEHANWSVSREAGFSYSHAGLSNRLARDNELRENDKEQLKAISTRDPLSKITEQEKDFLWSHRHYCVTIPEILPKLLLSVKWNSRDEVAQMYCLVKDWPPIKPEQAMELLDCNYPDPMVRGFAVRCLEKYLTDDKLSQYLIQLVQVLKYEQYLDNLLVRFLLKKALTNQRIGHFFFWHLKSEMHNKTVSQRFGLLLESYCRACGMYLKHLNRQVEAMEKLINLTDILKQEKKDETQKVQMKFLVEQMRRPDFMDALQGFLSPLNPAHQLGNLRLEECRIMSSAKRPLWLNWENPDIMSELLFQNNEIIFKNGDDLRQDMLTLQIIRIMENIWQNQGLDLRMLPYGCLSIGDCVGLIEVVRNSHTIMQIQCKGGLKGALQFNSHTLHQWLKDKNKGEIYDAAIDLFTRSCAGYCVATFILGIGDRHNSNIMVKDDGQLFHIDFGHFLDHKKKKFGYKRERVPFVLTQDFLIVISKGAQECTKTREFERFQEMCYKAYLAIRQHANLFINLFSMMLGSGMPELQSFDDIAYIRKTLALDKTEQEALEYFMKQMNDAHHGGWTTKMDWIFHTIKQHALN
Assay: KINOMEscan competition binding
Details: compound 10.0 µM
Answer each item with its documented kinase still bound, per cent of control.
Answers are plain numbers, in %.

C[C@@H](Oc1cc(-n2cnc3ccc(CN4CCN(C)CC4)cc32)sc1C(N)=O)c1ccccc1C(F)(F)F; 91
COc1cc(C(=O)N2CCC(N3CCN(C)CC3)CC2)ccc1Nc1ncc2c(n1)N(C)c1ccccc1C(=O)N2C; 77
COc1cc(N2CCN(C)CC2)ccc1Nc1ncc2c(n1)N(C)c1ccccc1C(=O)N2C; 100
COc1cc2ncnc(Nc3cccc(Cl)c3)c2cc1OC; 55
C=CC(=O)Nc1ccc(C(=O)c2sc(Nc3ccc(N4CCN(C)CC4)cc3OC)nc2N)cc1; 100

For every listed record, write down its kinase still bound, per cent of control.
1. COc1cc2ncn(-c3cc(OCc4ccccc4C(F)(F)F)c(C(N)=O)s3)c2cc1OC
2. O=C1NC(=O)/C(=C/c2ccc3nccc(-c4ccncc4)c3c2)S1
3. CNC(=O)Nc1ccc(-c2nc(N3CC4CCC(C3)O4)c3cnn(C4CCC5(CC4)OCCO5)c3n2)cc1
4. CCN(CC)CCCCNc1ncc2c(n1)N(C)C(=O)N(c1c(Cl)c(OC)cc(OC)c1Cl)C2

1. 100
2. 0.2
3. 14
4. 100

For every listed record, write down its kinase still bound, per cent of control.
1. COc1cc(C(=O)NC2CCN(C)CC2)ccc1Nc1ncc2c(n1)N(C1CCCC1)CCC(=O)N2C(C)C
2. C=CC(=O)Nc1cc(NC(=O)c2ccc(C)c(NC(=O)c3ccno3)c2)cc(C(F)(F)F)c1
3. C[C@@H](Oc1cc(-c2cnn(C3CCNCC3)c2)cnc1N)c1c(Cl)ccc(F)c1Cl
4. Cc1ccc2nc(NCCN)c3ncc(C)n3c2c1
5. COCC(=O)NC/C=C/c1ccc2ncnc(Nc3ccc(Oc4ccc(C)nc4)c(C)c3)c2c1
6. N#Cc1cc(-c2ccnc(Nc3ccc(-n4cnc(-c5cccnc5)n4)cc3)n2)cc(N2CCOCC2)c1
7. CCCS(=O)(=O)Nc1ccc(F)c(C(=O)c2c[nH]c3ncc(-c4ccc(Cl)cc4)cc23)c1F
8. O=c1[nH]c2ccccc2n1C1CCN(Cc2ccc(-c3nc4cc5[nH]cnc5cc4nc3-c3ccccc3)cc2)CC1

1: 100; 2: 88; 3: 100; 4: 100; 5: 100; 6: 100; 7: 100; 8: 58

For every listed record, write down its kinase still bound, per cent of control.
1. O=C1Nc2ccc(I)cc2/C1=C/c1cc(Br)c(O)c(Br)c1
2. O=C(NOC[C@H](O)CO)c1ccc(F)c(F)c1Nc1ccc(I)cc1F

1: 84; 2: 57

====

Target: TXK (human)
Assay: KINOMEscan competition binding
Settings: compound 10.0 µM
The threshold is 80%. Values of kinase still bound, per cent of control beneath it are tagged 1; values meeting or exceeding it are tagged -1.

Answered examples (10):
N#Cc1cc(-c2ccnc(Nc3ccc(-n4cnc(-c5cccnc5)n4)cc3)n2)cc(N2CCOCC2)c1; 1
CCN1CCN(Cc2ccc(NC(=O)c3ccc(C)c(/C=C/c4cnc5[nH]ccc5c4OC)c3)cc2C(F)(F)F)CC1; 1
COc1ccc(N(C(=O)Oc2cc(C(=O)Nc3cccc(C(F)(F)F)c3)ccc2C)c2ccnc(Nc3ccc(N4CCN(C)CC4)cc3)n2)c(OC)c1; 1
CNC(=O)Nc1ccc(-c2nc(N3CC4CCC(C3)O4)c3cnn(C4CCC5(CC4)OCCO5)c3n2)cc1; -1
COc1cc2ncnc(Nc3cccc(Cl)c3)c2cc1OC; 1
CCc1nc(-c2cccc(C)c2)c(-c2ccnc(NC(=O)c3ccccc3)c2)s1; 1
CC1=C(C(=O)Nc2cc3cn[nH]c3cc2F)C(c2ccc(C(F)(F)F)cc2)CC(=O)N1 (configuration not stated); -1
Cc1cn(-c2cc(C(=O)Nc3ccc(C)c(NC(=O)c4ccno4)c3)cc(C(F)(F)F)c2)cn1; 1
CCN(CCO)CCCOc1ccc2c(Nc3cc(CC(=O)Nc4cccc(F)c4)[nH]n3)ncnc2c1; -1
COc1cc2c(Nc3ccc(NC(=O)c4ccccc4)cc3)ncnc2cc1OCCCN1CCOCC1; -1

Determine if O=c1[nH]c2ccccc2n1C1CCN(Cc2ccc(-c3nc4cc5[nH]cnc5cc4nc3-c3ccccc3)cc2)CC1 shows kinase still bound, per cent of control strictly lower than 80%.
-1

Determine if COc1cc(N2CCC(C(N)=O)CC2)ccc1Nc1nc(N)c(Cl)c(Nc2ccccc2S(=O)(=O)C(C)C)n1 shows kinase still bound, per cent of control strictly lower than 80%.
-1

====

Answer each item with its documented kinase still bound, per cent of control.
Biological target: IKBKE (human)
Experiment: KINOMEscan competition binding
Conditions: compound 10.0 µM
One number for each entry, in %.

Worked set:
COc1cc2ncnc(Nc3cccc(Cl)c3)c2cc1OC; 55
CCN1CCN(Cc2ccc(NC(=O)c3ccc(C)c(/C=C/c4cnc5[nH]ccc5c4OC)c3)cc2C(F)(F)F)CC1; 94
N#C/C(=C1/Nc2ccccc2S1)c1ccnc(NCCc2cccnc2)n1; 100
N#Cc1cc(-c2ccnc(Nc3ccc(-n4cnc(-c5cccnc5)n4)cc3)n2)cc(N2CCOCC2)c1; 37

For every listed record, write down its kinase still bound, per cent of control.
1. CC(=O)c1c(C)c2cnc(Nc3ccc(N4CCNCC4)cn3)nc2n(C2CCCC2)c1=O
2. CCc1nc(-c2cccc(C)c2)c(-c2ccnc(NC(=O)c3ccccc3)c2)s1
3. COc1cc2c(Nc3ccc(NC(=O)c4ccccc4)cc3)ncnc2cc1OCCCN1CCOCC1

1. 22
2. 100
3. 62

====

Biological target: CHEK2 (human)
Assay: KINOMEscan competition binding
Details: compound 10.0 µM
Answer each item with its documented kinase still bound, per cent of control.
Answers are plain numbers, in %.

Worked set:
CC1=C(C(=O)Nc2cc3cn[nH]c3cc2F)C(c2ccc(C(F)(F)F)cc2)CC(=O)N1 (stereo unspecified); 78
CCCS(=O)(=O)Nc1ccc(F)c(C(=O)c2c[nH]c3ncc(Cl)cc23)c1F; 64
Cc1cn(-c2cc(C(=O)Nc3ccc(C)c(NC(=O)c4ccno4)c3)cc(C(F)(F)F)c2)cn1; 100
CCOc1cc(N2CCC(O)CC2)ccc1Nc1ncc2c(n1)N(C)c1ccccc1C(=O)N2C; 100
COc1cc(C)c(Sc2cnc(NC(=O)c3ccc(CNC(C)C(C)C)cc3)s2)cc1C(=O)N1CCN(C(C)=O)CC1 (stereo unspecified); 100
N#C/C(=C1/Nc2ccccc2S1)c1ccnc(NCCc2cccnc2)n1; 94
COc1cc2ncnc(Nc3cccc(Cl)c3)c2cc1OC; 6.7
C=CC(=O)Nc1ccc(C(=O)c2sc(Nc3ccc(N4CCN(C)CC4)cc3OC)nc2N)cc1; 26

For every listed record, write down its kinase still bound, per cent of control.
1. COc1cc2c(Nc3ccc(NC(=O)c4ccccc4)cc3)ncnc2cc1OCCCN1CCOCC1
2. CCN1CCN(Cc2ccc(NC(=O)c3ccc(C)c(/C=C/c4cnc5[nH]ccc5c4OC)c3)cc2C(F)(F)F)CC1

100
66

For every listed record, write down its kinase still bound, per cent of control.
1. N#Cc1cc(-c2ccnc(Nc3ccc(-n4cnc(-c5cccnc5)n4)cc3)n2)cc(N2CCOCC2)c1
2. CNC(=O)Nc1ccc(-c2nc(N3CC4CCC(C3)O4)c3cnn(C4CCC5(CC4)OCCO5)c3n2)cc1
3. CCc1nc(-c2cccc(C)c2)c(-c2ccnc(NC(=O)c3ccccc3)c2)s1
4. O=c1[nH]c2ccccc2n1C1CCN(Cc2ccc(-c3nc4cc5[nH]cnc5cc4nc3-c3ccccc3)cc2)CC1
5. COc1cc(N2CCC(C(N)=O)CC2)ccc1Nc1nc(N)c(Cl)c(Nc2ccccc2S(=O)(=O)C(C)C)n1

100
84
80
100
14

For the compound shown here, CCN(CCO)CCCOc1ccc2c(Nc3cc(CC(=O)Nc4cccc(F)c4)[nH]n3)ncnc2c1 , give the reported kinase still bound, per cent of control.
100
